src = PubChem BioAssay AID248

Test system: L1210 leukemia ip in BDF1 mice, survival T/C
Test: NCI In Vivo Anticancer Drug Screen. Data for tumor model L1210 Leukemia (intraperitoneal) in B6D2F1 (BDF1) mice
Conditions: endpoint: mean survival time; dose: 5.0 mg/kg/injection; schedule: Q01DX009 (ip); vehicle: saline
Inconclusive results and toxic doses are left out. No stated cut-off is given here; in the data, active means T/C of 150% or more; inactive means T/C below 125%.
Lab note: assign the record to one of active, inactive

1. Nc1nc(=S)c2ncn(C3CC(O)C(CO)O3)c2[nH]1 (stereo not given) ... active
2. Nc1cc(N)c(O)c(N)c1 ... inactive
3. CC[n+]1c(-c2ccccc2)c2cc(N)ccc2c2ccc(N)cc21 ... inactive
4. O=S1(=O)CC2(N3CCCCC3)CCCCC21 (stereo not given) ... inactive

Now let's try a different one.
Could you check what this test reported for `CN(/N=C/c1ccccc1)C(=N)N` ? inactive

----------
Tested on: L1210 leukemia ip in BDF1 mice, survival T/C
Test: NCI In Vivo Anticancer Drug Screen. Data for tumor model L1210 Leukemia (intraperitoneal) in B6D2F1 (BDF1) mice
Details: endpoint: mean survival time; dose: 50.0 mg/kg/injection; schedule: Q01DX009 (ip); vehicle: saline with Tween-80; higher = longer survival
Inconclusive results and toxic doses are left out.
measure.name: T/C

Sample records with T/C:
1. O=C1C=CC(=O)C(SCCC(=O)O)=C1 ... 102 % of control
2. Clc1nc(SC2=NCCN2)c2[nH]cnc2n1 ... 113 % of control
3. COCC1=CC(=O)CCC1CC1OC1(C)C (stereo not given) ... 96 % of control

Give the measured T/C of `O=S(=O)(F)c1cccc(C[P+](c2ccccc2)(c2ccccc2)c2ccccc2)c1` . 101 % of control

Recorded T/C of `CC(C)(C)C1=CC(=O)C(C(C)(C)C)=CC1=O` , please. 104 % of control

Would you kindly share the measured T/C for CCOC(=O)C(C(=O)OCC)C1CCCC(=O)C1 (stereo not given) ? 92 % of control

----------
System: L1210 leukemia ip in BDF1 mice, survival T/C
Assay: NCI In Vivo Anticancer Drug Screen. Data for tumor model L1210 Leukemia (intraperitoneal) in B6D2F1 (BDF1) mice
Settings: endpoint: mean survival time; dose: 50.0 mg/kg/injection; schedule: Q01DX001 (ip); vehicle: saline with Tween-80; higher = longer survival
Toxic doses and inconclusive results are not listed.
# T/C per entry

1) CC1(C)N=C(N)N=C(N)N1CCCOc1ccc(NC(=O)Nc2cccc(S(=O)(=O)F)c2)cc1 ... 100 % of control
2) O=c1c(Cl)c(C(Cl)(Cl)Cl)[nH]c2ccccc12 ... 106 % of control
3) Cc1ccccc1C(=O)C(C#N)c1ccccc1 (centres undefined) ... 95 % of control

Next, consider the following compound.
Quick check: T/C of `O=[N+]([O-])/C=C\c1cc2c3c(c1)CCCN3CCC2` ? 97 % of control

----------
Tested on: L1210 leukemia ip in BDF1 mice, survival T/C
Assay: NCI In Vivo Anticancer Drug Screen. Data for tumor model L1210 Leukemia (intraperitoneal) in B6D2F1 (BDF1) mice
Details: endpoint: mean survival time; dose: 400.0 mg/kg/injection; schedule: Q01DX001 (ip); vehicle: carboxymethylcellulose (CMC)
Toxic doses and inconclusive results are not listed. No stated cut-off is given here; in the data, active means T/C of 150% or more; inactive means T/C below 125%.
Please state which outcome applies, choosing from YES for active, NO for inactive

1. Clc1cccc(C2ON2C2CCCCC2)c1 (configuration not stated) ... NO
2. CC1(C)COC(c2ccc3c(c2)OCO3)OC1 ... NO
3. CN(/N=N/N(C)c1ccccc1)c1ccccc1 ... NO
4. CC(=O)Nc1c(Br)cc2c(c1Br)Cc1cc(Br)ccc1-2 ... NO
5. CCc1c(O)nc2ccccn2c1=O ... NO
6. CCC[CH2][Sn](=[S])[CH2]CCC ... NO
7. O=C1OC(=O)C23CC=CCC12CC=CC3 (configuration not stated) ... NO
8. COc1ccccc1NC(=O)NO ... NO
9. COc1ccc(C=Nc2cc([N+](=O)[O-])ccc2O)cc1 ... NO
10. COc1ccc(C(OC(=O)c2ccc([N+](=O)[O-])cc2)c2ccccc2)cc1 (configuration not stated) ... NO

Lab log entry: `Oc1ccccc1/C=N/Nc1nnc(N/N=C/c2ccccc2O)c2ccccc12` — outcome as called in the assay? NO

What is the recorded call for this compound in the test? `CC(=O)N(C)c1ccc(/C=C2\C=Cc3ccccc32)cc1` NO
